molecules and their reported melting point

{"molecule": "COc1ccc2cc([S+]([O-])Cc3ccc(C#N)cc3)oc2c1 (stereo not drawn) [Compound 6b]", "melting point": "137 to 138 °C"}
{"molecule": "O=S(=O)(Cc1ccc(Br)cc1)c1cc2ccc(F)cc2o1 [Compound 7h]", "melting point": "167 to 168 °C"}
{"molecule": "N#Cc1ccc(CS(=O)(=O)c2cc3ccc(F)cc3o2)cc1 [Compound 7g]", "melting point": "178 to 179.5 °C"}
{"molecule": "[O-][S+](Cc1ccc(F)cc1)c1cc2ccc(F)cc2o1 (stereo not drawn) [Compound 6i]", "melting point": "107.5 to 109 °C"}
{"molecule": "[O-][S+](Cc1ccc(Br)cc1)c1cc2ccc(F)cc2o1 (stereo not drawn) [Compound 6h]", "melting point": "137 to 138.5 °C"}
{"molecule": "COc1ccc(CS(=O)(=O)c2cc3ccc(F)cc3o2)cc1 [Compound 7f]", "melting point": "119 to 120.5 °C"}
{"molecule": "O=S(=O)(Cc1ccc(F)cc1)c1cc2ccc(F)cc2o1 [Compound 7i]", "melting point": "144 to 145 °C"}
{"molecule": "N#Cc1ccc(C[S+]([O-])c2cc3ccc(F)cc3o2)cc1 (stereo not drawn) [Compound 6g]", "melting point": "105.5 to 107 °C"}
{"molecule": "COC(=O)c1ccc(CS(=O)(=O)c2cc3ccc(F)cc3o2)cc1 [Compound 7j]", "melting point": "160 to 161 °C"}

* * *

target: human recombinant SIRT3 (Homo sapiens, UniProt Q9NTG7); assay: SIRT3 enzymatic deacetylation assay with AMC-tagged peptide substrate (fluorescence)

{"molecule": "COc1ccc(C[S+]([O-])c2cc3ccc(F)cc3o2)cc1 (stereo not drawn)", "study-system": "human recombinant SIRT3 (Homo sapiens, UniProt Q9NTG7)", "IC50": "> 100 µM"}
{"molecule": "O=S(=O)(Cc1ccc(F)cc1)c1cc2ccc(F)cc2o1", "study-system": "human recombinant SIRT3 (Homo sapiens, UniProt Q9NTG7)", "IC50": "> 100 µM"}
{"molecule": "COC(=O)c1ccc(C[S+]([O-])c2cc3ccc(F)cc3o2)cc1 (stereo not drawn)", "study-system": "human recombinant SIRT3 (Homo sapiens, UniProt Q9NTG7)", "IC50": "> 100 µM"}

* * *

Biological target: human recombinant SIRT1 (Homo sapiens)
Sequence (Q96EB6 1-747): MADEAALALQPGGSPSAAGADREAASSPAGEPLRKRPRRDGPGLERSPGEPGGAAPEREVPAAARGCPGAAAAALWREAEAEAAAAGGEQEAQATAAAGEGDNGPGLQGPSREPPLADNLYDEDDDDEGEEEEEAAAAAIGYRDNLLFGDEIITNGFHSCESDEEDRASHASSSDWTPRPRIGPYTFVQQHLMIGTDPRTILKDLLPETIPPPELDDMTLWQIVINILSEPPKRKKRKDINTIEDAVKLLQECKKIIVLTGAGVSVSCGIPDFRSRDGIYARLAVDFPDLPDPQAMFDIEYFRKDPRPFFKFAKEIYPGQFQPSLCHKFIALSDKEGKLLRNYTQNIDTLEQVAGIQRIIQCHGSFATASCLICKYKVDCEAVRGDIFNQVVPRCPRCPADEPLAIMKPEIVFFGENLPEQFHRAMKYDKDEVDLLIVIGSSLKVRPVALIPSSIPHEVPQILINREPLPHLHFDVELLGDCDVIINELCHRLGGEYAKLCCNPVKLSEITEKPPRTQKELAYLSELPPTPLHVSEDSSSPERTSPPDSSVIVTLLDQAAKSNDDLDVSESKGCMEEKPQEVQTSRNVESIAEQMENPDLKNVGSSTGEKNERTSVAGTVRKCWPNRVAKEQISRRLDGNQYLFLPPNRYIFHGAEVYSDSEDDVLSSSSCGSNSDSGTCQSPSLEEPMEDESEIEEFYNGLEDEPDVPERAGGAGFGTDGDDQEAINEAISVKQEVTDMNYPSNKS
Assay: SIRT1 enzymatic deacetylation assay with AMC-tagged peptide substrate (fluorescence)
compounds and their reported IC50
recorded-metric: IC50

{"compound": "N#Cc1ccc(C[S+]([O-])c2cc3ccc(F)cc3o2)cc1 (stereo not drawn) [Compound 6g]", "reported": "> 100 µM"}
{"compound": "COc1ccc2cc([S+]([O-])Cc3ccc(F)cc3)oc2c1 (stereo not drawn) [Compound 6d]", "reported": "> 100 µM"}
{"compound": "COC(=O)c1ccc(CS(=O)(=O)c2cc3ccc(F)cc3o2)cc1 [Compound 7j]", "reported": "> 100 µM"}
{"compound": "COc1ccc(C[S+]([O-])c2cc3ccc(F)cc3o2)cc1 (stereo not drawn) [Compound 6f]", "reported": "> 100 µM"}
{"compound": "COc1ccc2cc(S(=O)(=O)Cc3ccc(F)cc3)oc2c1 [Compound 7d]", "reported": "> 100 µM"}
{"compound": "N#Cc1ccc(CS(=O)(=O)c2cc3ccc(F)cc3o2)cc1 [Compound 7g]", "reported": "> 100 µM"}
{"compound": "COC(=O)c1ccc(C[S+]([O-])c2cc3ccc(OC)cc3o2)cc1 (stereo not drawn) [Compound 6e]", "reported": "> 100 µM"}
{"compound": "COc1ccc(CS(=O)(=O)c2cc3ccc(F)cc3o2)cc1 [Compound 7f]", "reported": "> 100 µM"}
{"compound": "COC(=O)c1ccc(CS(=O)(=O)c2cc3ccc(OC)cc3o2)cc1 [Compound 7e]", "reported": "> 100 µM"}
{"compound": "COc1ccc(CS(=O)(=O)c2cc3ccc(OC)cc3o2)cc1 [Compound 7a]", "reported": "> 100 µM"}
{"compound": "COc1ccc2cc([S+]([O-])Cc3ccc(Br)cc3)oc2c1 (stereo not drawn) [Compound 6c]", "reported": "> 100 µM"}
{"compound": "O=S(=O)(Cc1ccc(F)cc1)c1cc2ccc(F)cc2o1 [Compound 7i]", "reported": "> 100 µM"}
{"compound": "O=S(=O)(Cc1ccc(Br)cc1)c1cc2ccc(F)cc2o1 [Compound 7h]", "reported": "> 100 µM"}
{"compound": "[O-][S+](Cc1ccc(Br)cc1)c1cc2ccc(F)cc2o1 (stereo not drawn) [Compound 6h]", "reported": "> 100 µM"}
{"compound": "COc1ccc2cc([S+]([O-])Cc3ccc(C#N)cc3)oc2c1 (stereo not drawn) [Compound 6b]", "reported": "> 100 µM"}
{"compound": "N#CC(=Cc1ccc(-c2cc(Cl)ccc2Cl)o1)C(=O)Nc1cccc2ncccc12 [AGK2, reference compound]", "reported": "> 100 µM"}
{"compound": "COc1ccc2cc(S(=O)(=O)Cc3ccc(Br)cc3)oc2c1 [Compound 7c]", "reported": "> 100 µM"}
{"compound": "COC(=O)c1ccc(C[S+]([O-])c2cc3ccc(F)cc3o2)cc1 (stereo not drawn) [Compound 6j]", "reported": "> 100 µM"}
{"compound": "COc1ccc(C[S+]([O-])c2cc3ccc(OC)cc3o2)cc1 (stereo not drawn) [Compound 6a]", "reported": "> 100 µM"}
{"compound": "COc1ccc2cc(S(=O)(=O)Cc3ccc(C#N)cc3)oc2c1 [Compound 7b]", "reported": "> 100 µM"}
{"compound": "[O-][S+](Cc1ccc(F)cc1)c1cc2ccc(F)cc2o1 (stereo not drawn) [Compound 6i]", "reported": "> 100 µM"}
